system: Hs27 cell line; experiment: Cytotoxicity assay (MTT) on human fibroblast Hs27 cells; format: cell-based; conditions: Hs27 cell line, MTT
Please provide measured CC30 for the entries that follow.
Give bare numbers, in µM.

Some compounds with known CC30 results, for comparison:
May I ask what CC30 has been recorded for O=C(NNC(=S)Nc1ccccc1I)C1CCCC1 ?
369.69

What CC30 value was documented for this compound, O=C(NNC(=S)Nc1ccccc1Cl)C1CCCC1 ?
512.31

Requested read-out: CC30. Entry: O=C(NNC(=S)Nc1ccc([N+](=O)[O-])cc1)C1CCCC1
405.09

What does the data say about its CC30? Entry: Cc1ccc(NC(=S)NNC(=O)C2CCCC2)cc1
445.10

Reported CC30 for O=C(NNC(=S)Nc1cccc(I)c1)C1CCCC1 : what is it?
135.87

# evaluate next
Could you share which CC30 value was measured for O=C(NNC(=S)Nc1cccc([N+](=O)[O-])c1)C1CCCC1 ?
603.98

----------
tested on: Hs27 cell line; test: Cytotoxicity assay (MTT) on human fibroblast Hs27 cells; type: cell-based
Label NOT MET if CC30 falls below 500 µM; label MET in every other case.

Given the entry Cc1nc[nH]c1C(=O)NNC(=S)Nc1ccccc1I , answer whether its CC30 meets or surpasses 500 µM.
NOT MET

Is CC30 for Cc1nc[nH]c1C(=O)NNC(=S)Nc1cccc([N+](=O)[O-])c1 at or above 500 µM?
NOT MET

Next:
API: above_or_equal(metric=CC30, cutoff=500 µM) for item Cc1ccc(NC(=S)NNC(=O)c2[nH]cnc2C)cc1
NOT MET

Please indicate if the recorded CC30 for Cc1nc[nH]c1C(=O)NNC(=S)Nc1cc(F)ccc1F meets or exceeds 500 µM.
MET

Tell me whether CC30 is at least 500 µM here: Cc1nc[nH]c1C(=O)NNC(=S)Nc1cccc(I)c1
NOT MET

Could you tell me if the measured CC30 of Cc1nc[nH]c1C(=O)NNC(=S)Nc1ccc([N+](=O)[O-])cc1 reaches 500 µM or more?
MET

Reported CC30 reaches at least 500 µM for Cc1nc[nH]c1C(=O)NNC(=S)Nc1ccccc1Br ?
MET

----------
Provide the recorded log10 CC30 for the entries that follow.
test system: L929 cells; assay: Cell viability assay (MTT, ISO 10993-5) on L929 mouse fibroblasts; type: cell-based; settings: 24 h, concentration for 30% inhibition of cell proliferation
Form field - Quantity: CC30; Unit: µM; Scale: log10

# query: log10 CC30 of entry CCc1nc(N)nc(N)c1-c1ccc(Cl)cc1 [Pyrimethamine (PYR), Pyrimethamine, reference compound]
2.26

Bench note: what log10 CC30 did COc1ccccc1NC(=S)NNC(=O)C1CCCC1 [Compound 7b] show?
2.95

May I ask what log10 CC30 has been recorded for O=c1cc(CO)occ1O [Kojic acid (KA), Kojic acid, reference compound] ?
3.19

Name the reported log10 CC30 value associated with the compound Cc1ccc(NC(=S)NNC(=O)C2CCCC2)cc1 [Compound 8b]
2.67

// for each compound below, give its log10 CC30
1. O=C(NNC(=S)Nc1ccccc1Br)C1CCCC1 [Compound 4b]
2. O=C(NNC(=S)Nc1cccc(I)c1)C1CCCC1 [Compound 6b]
3. O=C(NNC(=S)Nc1cc(F)ccc1F)C1CCCC1 [Compound 9b]

[2.91, 2.07, 2.93]

Could I get log10 CC30 for every one of these entries?
1. COc1cc(Cc2cnc(N)nc2N)cc(OC)c1OC [Trimethoprim (TRI), Trimethoprim, reference compound]
2. O=C(NNC(=S)Nc1ccccc1Cl)C1CCCC1 [Compound 3b]
3. O=C(NNC(=S)Nc1cccc([N+](=O)[O-])c1)C1CCCC1 [Compound 1b]
4. O=C(NNC(=S)Nc1ccccc1I)C1CCCC1 [Compound 5b]

1. 1.79
2. 2.74
3. 2.79
4. 2.52
